test system: T1, human GALR2 (human)
T1 chain: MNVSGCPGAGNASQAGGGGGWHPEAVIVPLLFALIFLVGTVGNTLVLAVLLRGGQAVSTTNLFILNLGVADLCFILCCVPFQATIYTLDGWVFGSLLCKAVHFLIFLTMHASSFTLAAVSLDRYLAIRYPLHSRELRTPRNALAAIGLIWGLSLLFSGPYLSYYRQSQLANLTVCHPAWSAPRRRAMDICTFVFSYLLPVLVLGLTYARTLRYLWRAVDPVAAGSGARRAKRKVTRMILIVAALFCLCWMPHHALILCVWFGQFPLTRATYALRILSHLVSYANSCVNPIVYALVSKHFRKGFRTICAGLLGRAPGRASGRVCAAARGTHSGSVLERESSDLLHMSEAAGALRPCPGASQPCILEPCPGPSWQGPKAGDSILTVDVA
test: competition, radioligand COS-7
quantity kind: pKi
Just so you know, pKi here is -log10 of the concentration in molar units; reply with that number alone.

Return pKi for the following binder: MPRGCALLLASLLLASALSATLGLGSPVK [porcine galanin (1-29)]
9.14

Return pKi for the following binder: MPRGCALLLASLLLAS [galanin (1-16)]
7.82

Return pKi for the following binder: MARGSVILLAWLLLVATLSATLGLGMPTK [rat galanin]
9.00
